study system: calcium channel (Oryctolagus cuniculus)
Construct: from tissue; host or cells: rabbit heart membrane preparation
assay details: Assay for Inhibition of Nitrendipine Binding (3H-nitrendipine, heart membranes)
condition context: 3H-nitrendipine displacement, rabbit heart membranes; Tables 1-5
quantity measured: pIC50
Convention used: pIC50 is expressed as -log10 of the molar concentration.

Exercise: Value lookup for pIC50; key = CC1=C(C(=O)OCCN(C)Cc2cccs2)C(c2cc(F)c(F)c(F)c2)C2=C(CS(=O)(=O)CCS2(=O)=O)N1 (stereo not shown)
Solution: 7.62

Exercise: Value lookup for pIC50; key = COC(=O)C1=C(C)NC2=C(C1c1cccc(C(F)(F)F)c1F)S(=O)(=O)CC(CO)S(=O)(=O)C2 (stereo not shown)
Solution: 6.71

Exercise: Value lookup for pIC50; key = CC1=C(C(=O)OCCN(C)Cc2ccccc2)C(c2c(F)cccc2C(F)(F)F)C2=C(CS(=O)(=O)CCCS2(=O)=O)N1 (stereo not shown)
Solution: 7.55

Exercise: Value lookup for pIC50; key = CC1=C(C(=O)OCCN(C)Cc2ccccc2)C(c2ccccc2Cl)C2=C(CS(=O)(=O)CCS2(=O)=O)N1 (stereo not shown)
Solution: 7.35

Exercise: Value lookup for pIC50; key = C=C1CS(=O)(=O)C2=C(CS1(=O)=O)NC(C)=C(C(=O)OC)C2c1cccc(C(F)(F)F)c1F (stereo not shown)
Solution: 7.68

Exercise: Value lookup for pIC50; key = CC1=C(C(=O)OCCN(C)Cc2ccccc2)C(c2cccc(C(F)(F)F)c2F)C2=C(CS(=O)(=O)CCCS2(=O)=O)N1 (stereo not shown)
Solution: 7.28

Exercise: Value lookup for pIC50; key = CC1=C(C(=O)OCCN(C)Cc2ccccc2)C(c2c(O)cccc2Cl)C2=C(CS(=O)(=O)CCS2(=O)=O)N1 (stereo not shown)
Solution: 6.41

====

Field: IC50. Provide a value for each of the compounds that follow.
study system: calcium channel (Oryctolagus cuniculus, UniProt P15381)
Construct: from tissue; host or cells: rabbit heart membrane preparation
Sequence (P15381 whole entry, other chains not shown): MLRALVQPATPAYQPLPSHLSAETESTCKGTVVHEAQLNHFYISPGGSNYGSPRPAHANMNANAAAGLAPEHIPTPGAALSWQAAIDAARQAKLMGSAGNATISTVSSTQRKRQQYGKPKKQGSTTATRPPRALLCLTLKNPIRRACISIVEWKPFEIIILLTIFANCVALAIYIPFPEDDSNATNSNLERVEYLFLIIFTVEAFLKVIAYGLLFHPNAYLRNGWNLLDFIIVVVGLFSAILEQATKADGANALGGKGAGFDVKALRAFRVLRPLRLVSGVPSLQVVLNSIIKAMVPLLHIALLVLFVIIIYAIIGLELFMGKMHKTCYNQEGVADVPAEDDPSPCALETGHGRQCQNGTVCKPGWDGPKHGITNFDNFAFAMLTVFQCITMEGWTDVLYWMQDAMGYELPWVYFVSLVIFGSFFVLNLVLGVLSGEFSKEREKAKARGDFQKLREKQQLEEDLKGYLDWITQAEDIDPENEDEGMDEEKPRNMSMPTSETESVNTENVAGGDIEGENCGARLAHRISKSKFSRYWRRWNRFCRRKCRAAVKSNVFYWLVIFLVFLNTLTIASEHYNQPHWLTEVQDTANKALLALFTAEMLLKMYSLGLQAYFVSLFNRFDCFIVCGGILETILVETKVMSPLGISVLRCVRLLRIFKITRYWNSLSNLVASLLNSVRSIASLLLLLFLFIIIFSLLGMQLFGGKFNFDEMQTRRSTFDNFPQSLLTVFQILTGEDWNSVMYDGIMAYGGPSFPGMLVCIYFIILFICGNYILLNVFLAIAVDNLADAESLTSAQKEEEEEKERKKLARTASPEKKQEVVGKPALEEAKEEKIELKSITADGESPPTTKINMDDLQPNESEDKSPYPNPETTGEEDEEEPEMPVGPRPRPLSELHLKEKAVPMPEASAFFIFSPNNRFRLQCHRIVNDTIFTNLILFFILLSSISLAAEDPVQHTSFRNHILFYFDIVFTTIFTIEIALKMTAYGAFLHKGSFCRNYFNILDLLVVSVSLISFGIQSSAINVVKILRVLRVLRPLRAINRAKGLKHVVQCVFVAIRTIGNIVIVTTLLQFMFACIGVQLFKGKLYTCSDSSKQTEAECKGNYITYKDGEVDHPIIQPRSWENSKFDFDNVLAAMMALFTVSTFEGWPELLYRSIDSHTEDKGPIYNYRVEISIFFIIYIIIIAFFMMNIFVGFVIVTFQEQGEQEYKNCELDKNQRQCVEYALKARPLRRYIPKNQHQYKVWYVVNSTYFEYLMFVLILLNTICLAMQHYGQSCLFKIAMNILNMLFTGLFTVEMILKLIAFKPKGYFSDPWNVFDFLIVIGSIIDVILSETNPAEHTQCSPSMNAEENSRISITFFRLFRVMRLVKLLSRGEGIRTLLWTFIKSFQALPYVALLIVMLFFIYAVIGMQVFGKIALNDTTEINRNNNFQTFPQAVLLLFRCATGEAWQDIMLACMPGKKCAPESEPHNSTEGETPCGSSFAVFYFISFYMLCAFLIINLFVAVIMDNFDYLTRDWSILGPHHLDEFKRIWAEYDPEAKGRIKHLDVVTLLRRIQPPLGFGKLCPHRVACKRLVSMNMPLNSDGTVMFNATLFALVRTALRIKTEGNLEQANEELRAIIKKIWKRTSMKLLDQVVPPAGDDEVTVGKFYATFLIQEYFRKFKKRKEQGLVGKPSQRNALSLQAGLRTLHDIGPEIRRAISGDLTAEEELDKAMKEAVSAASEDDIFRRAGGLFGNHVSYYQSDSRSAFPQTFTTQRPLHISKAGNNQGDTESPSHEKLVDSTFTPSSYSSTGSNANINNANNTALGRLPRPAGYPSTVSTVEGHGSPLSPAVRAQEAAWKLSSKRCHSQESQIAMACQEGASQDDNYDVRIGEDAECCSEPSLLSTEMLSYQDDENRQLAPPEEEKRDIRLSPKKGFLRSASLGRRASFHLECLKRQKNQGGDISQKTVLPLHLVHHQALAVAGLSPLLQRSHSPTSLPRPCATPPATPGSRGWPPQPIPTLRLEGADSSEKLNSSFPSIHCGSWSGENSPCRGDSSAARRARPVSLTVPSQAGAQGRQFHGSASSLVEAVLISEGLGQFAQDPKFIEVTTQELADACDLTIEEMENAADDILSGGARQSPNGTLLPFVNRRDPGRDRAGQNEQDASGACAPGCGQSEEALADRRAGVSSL
Sequence (P13806 27-960 partner limits assumed, other chains not shown): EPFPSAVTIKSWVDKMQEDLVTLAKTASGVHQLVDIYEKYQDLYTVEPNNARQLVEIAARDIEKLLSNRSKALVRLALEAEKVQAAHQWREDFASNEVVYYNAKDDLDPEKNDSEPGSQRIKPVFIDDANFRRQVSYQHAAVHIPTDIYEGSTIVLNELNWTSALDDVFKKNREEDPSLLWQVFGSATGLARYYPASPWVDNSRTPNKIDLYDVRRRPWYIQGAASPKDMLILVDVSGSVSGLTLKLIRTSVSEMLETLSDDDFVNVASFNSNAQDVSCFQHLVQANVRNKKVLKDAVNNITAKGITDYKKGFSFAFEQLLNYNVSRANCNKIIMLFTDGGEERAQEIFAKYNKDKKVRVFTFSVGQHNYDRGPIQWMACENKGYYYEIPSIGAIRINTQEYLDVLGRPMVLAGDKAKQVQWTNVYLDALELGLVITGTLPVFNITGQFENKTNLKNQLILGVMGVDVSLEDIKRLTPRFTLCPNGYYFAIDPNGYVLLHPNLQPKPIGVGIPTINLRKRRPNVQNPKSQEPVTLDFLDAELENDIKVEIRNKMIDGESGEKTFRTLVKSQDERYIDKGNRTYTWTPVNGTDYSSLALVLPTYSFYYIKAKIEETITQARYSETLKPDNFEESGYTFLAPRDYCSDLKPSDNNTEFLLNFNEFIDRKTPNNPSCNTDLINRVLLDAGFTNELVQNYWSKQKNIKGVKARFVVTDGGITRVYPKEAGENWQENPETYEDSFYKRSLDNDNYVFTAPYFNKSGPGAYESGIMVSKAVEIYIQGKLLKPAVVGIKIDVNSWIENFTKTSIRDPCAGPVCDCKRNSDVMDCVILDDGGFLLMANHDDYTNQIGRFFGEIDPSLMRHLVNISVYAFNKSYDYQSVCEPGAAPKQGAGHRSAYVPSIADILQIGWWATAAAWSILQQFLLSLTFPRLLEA
Sequence (P13806 961-1106 partner limits assumed, other chains not shown): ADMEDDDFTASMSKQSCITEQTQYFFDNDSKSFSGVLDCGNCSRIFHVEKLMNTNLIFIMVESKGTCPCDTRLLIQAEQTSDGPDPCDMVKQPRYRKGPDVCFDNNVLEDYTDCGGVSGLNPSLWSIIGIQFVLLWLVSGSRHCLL
assay details: Assay for Inhibition of Nitrendipine Binding (3H-nitrendipine, heart membranes)
condition context: 3H-nitrendipine displacement, rabbit heart membranes; Tables 6-7
The reply should be a number in nM, with the unit left off.

Exercise: Value lookup for IC50; key = CC1=C(C(=O)OCCOC(=O)C2CCc3ccccc3C2)C(c2c(F)cccc2Cl)C2=C(CS(=O)(=O)CCS2(=O)=O)N1 (stereo not shown)
Solution: 44

Exercise: Value lookup for IC50; key = CC(=O)OCCOC(=O)C1=C(C)NC2=C(C1c1c(F)cccc1Cl)S(=O)(=O)CCS(=O)(=O)C2 (stereo not shown)
Solution: 898

Exercise: Value lookup for IC50; key = CC1=C(C(=O)OCCOC(=O)c2ccc3ccccc3c2)C(c2c(F)cccc2Cl)C2=C(CS(=O)(=O)CCS2(=O)=O)N1 (stereo not shown)
Solution: 50

Exercise: Value lookup for IC50; key = CC1=C(C(=O)OC2CCOC2=O)C(c2c(F)cccc2Cl)C2=C(CS(=O)(=O)CCS2(=O)=O)N1 (stereo not shown)
Solution: 174

====

study system: calcium channel (Oryctolagus cuniculus, UniProt P15381)
Construct: from tissue; host or cells: rabbit heart membrane preparation
assay details: Assay for Inhibition of Nitrendipine Binding (3H-nitrendipine, heart membranes)
condition context: 3H-nitrendipine displacement, rabbit heart membranes; Tables 1-5
quantity measured: IC50 (nM)
The reply should be a number in nM, with the unit left off.

Exercise: Value lookup for IC50; key = COC(=O)C1=C(C)NC2=C(C1c1ccccc1[N+](=O)[O-])S(=O)(=O)CCS(=O)(=O)C2 (stereo not drawn)
Solution: 210

Exercise: Value lookup for IC50; key = COC(=O)C1=C(C)NC2=C(C1c1cccc(C(F)(F)F)c1F)S(=O)(=O)CCS(=O)(=O)C2 (stereo not drawn)
Solution: 20

Exercise: Value lookup for IC50; key = COC(=O)C1=C(C)NC2=C(C1c1cccc(F)c1F)S(=O)(=O)CCS(=O)(=O)C2 (stereo not drawn)
Solution: 68

====

Field: pIC50. Provide a value for each of the compounds that follow.
study system: calcium channel (Oryctolagus cuniculus, UniProt P15381)
Construct: from tissue; host or cells: rabbit heart membrane preparation
assay details: Assay for Inhibition of Nitrendipine Binding (3H-nitrendipine, heart membranes)
condition context: 3H-nitrendipine displacement, rabbit heart membranes; Tables 6-7
Convention used: pIC50 is expressed as -log10 of the molar concentration.

Exercise: Value lookup for pIC50; key = CC1=C(C(=O)OCC(N)=O)C(c2c(F)cccc2Cl)C2=C(CS(=O)(=O)CCS2(=O)=O)N1 (centres unmarked)
Solution: 5.16

Exercise: Value lookup for pIC50; key = CC1=C(C(=O)OCCOC(=O)C(C)C)C(c2cccc(Cl)c2Cl)C2=C(CS(=O)(=O)CCS2(=O)=O)N1 (centres unmarked)
Solution: 7.82

Exercise: Value lookup for pIC50; key = CC1=C(C(=O)OCCOC(=O)C(C)C)C(c2c(F)cccc2Cl)C2=C(CS(=O)(=O)CCS2(=O)=O)N1 (centres unmarked) [Compound 64]
Solution: 6.66

Exercise: Value lookup for pIC50; key = CC1=C(C(=O)OCCOC(=O)C(C)(C)C)C(c2c(F)cccc2Cl)C2=C(CS(=O)(=O)CCS2(=O)=O)N1 (centres unmarked)
Solution: 5.43

Exercise: Value lookup for pIC50; key = CC1=C(C(=O)OCCN)C(c2c(F)cccc2Cl)C2=C(CS(=O)(=O)CCS2(=O)=O)N1 (centres unmarked)
Solution: 5.32

Exercise: Value lookup for pIC50; key = CC1=C(C(=O)OCCOC(=O)CN(C)Cc2ccccc2)C(c2c(F)cccc2Cl)C2=C(CS(=O)(=O)CCS2(=O)=O)N1 (centres unmarked)
Solution: 7.30

Exercise: Value lookup for pIC50; key = CC1=C(C(=O)OCCO)C(c2c(F)cccc2Cl)C2=C(CS(=O)(=O)CCS2(=O)=O)N1 (centres unmarked)
Solution: 6.00

Exercise: Value lookup for pIC50; key = CC(=O)OCCCOC(=O)C1=C(C)NC2=C(C1c1c(F)cccc1Cl)S(=O)(=O)CCS(=O)(=O)C2 (centres unmarked) [Compound 68]
Solution: 6.47

Exercise: Value lookup for pIC50; key = CC1=C(C(=O)OCCCOC(=O)c2ccccc2)C(c2c(F)cccc2Cl)C2=C(CS(=O)(=O)CCS2(=O)=O)N1 (centres unmarked)
Solution: 7.37

Exercise: Value lookup for pIC50; key = CC1=C(C(=O)OCCOC(=O)CCC(C)C)C(c2c(F)cccc2Cl)C2=C(CS(=O)(=O)CCS2(=O)=O)N1 (centres unmarked)
Solution: 7.70

Exercise: Value lookup for pIC50; key = CC1=C(C(=O)OCCOC(=O)C(C)Cc2ccccc2)C(c2c(F)cccc2Cl)C2=C(CS(=O)(=O)CCS2(=O)=O)N1 (centres unmarked)
Solution: 7.48

Exercise: Value lookup for pIC50; key = CC1=C(C(=O)OCCOC(=O)c2ccccc2)C(c2c(F)cccc2Cl)C2=C(CS(=O)(=O)CCS2(=O)=O)N1 (centres unmarked)
Solution: 7.21

Exercise: Value lookup for pIC50; key = CC1=C(C(=O)OCCOC(=O)CC(C)C)C(c2c(F)cccc2Cl)C2=C(CS(=O)(=O)CCS2(=O)=O)N1 (centres unmarked)
Solution: 7.46

Exercise: Value lookup for pIC50; key = CC1=C(C(=O)OCCOC(=O)c2ccncc2)C(c2c(F)cccc2Cl)C2=C(CS(=O)(=O)CCS2(=O)=O)N1 (centres unmarked)
Solution: 6.12

====

Field: IC50. Provide a value for each of the compounds that follow.
study system: calcium channel (Oryctolagus cuniculus)
Construct: from tissue; host or cells: rabbit heart membrane preparation
assay details: Assay for Inhibition of Nitrendipine Binding (3H-nitrendipine, heart membranes)
condition context: 3H-nitrendipine displacement, rabbit heart membranes; Tables 1-5
The reply should be a number in nM, with the unit left off.

Exercise: Find the measured IC50: item CC1=C(C(=O)OCCN(C)Cc2ccccc2)C(c2c(F)cccc2Cl)C2=C(CS(=O)(=O)CCS2(=O)=O)N1 (stereo not drawn) , target or system calcium channel (Oryctolagus cuniculus).
Solution: 74

Exercise: Find the measured IC50: item CC1=C(C(=O)OCCN(C)Cc2ccccc2)C(c2c(F)c(F)c(F)c(F)c2F)C2=C(CS(=O)(=O)CCCS2(=O)=O)N1 (stereo not drawn) , target or system calcium channel (Oryctolagus cuniculus).
Solution: 49

Exercise: Find the measured IC50: item CC1=C(C(=O)OCCN(C)Cc2ccccc2)C(c2cccc([N+](=O)[O-])c2)C2=C(CS(=O)(=O)CCCS2(=O)=O)N1 (stereo not drawn) , target or system calcium channel (Oryctolagus cuniculus).
Solution: 10

====

Field: pIC50. Provide a value for each of the compounds that follow.
study system: calcium channel (Oryctolagus cuniculus, UniProt P15381)
Construct: from tissue; host or cells: rabbit heart membrane preparation
assay details: Assay for Inhibition of Nitrendipine Binding (3H-nitrendipine, heart membranes)
condition context: 3H-nitrendipine displacement, rabbit heart membranes; Tables 1-5
Convention used: pIC50 is expressed as -log10 of the molar concentration.

Exercise: Value lookup for pIC50; key = CC1=C(C(=O)OCCN(C)Cc2ccccc2)C(c2cccc(C(F)(F)F)c2F)C2=C(CS(=O)(=O)CS2(=O)=O)N1 (stereo not drawn) [Compound 31]
Solution: 7.55

Exercise: Value lookup for pIC50; key = CC1=C(C(=O)OCCN(C)Cc2ccccc2)C(c2cccc(C(F)(F)F)c2F)C2=C(CS(=O)(=O)CCS2(=O)=O)N1 (stereo not drawn) [Compound 7]
Solution: 7.74

Exercise: Value lookup for pIC50; key = CC1=C(C(=O)OCCN(C)Cc2ccccc2)[C@H](c2c(F)cccc2Cl)C2=C(CS(=O)(=O)CCS2(=O)=O)N1 (single isomer, unassigned) [Compound 3]
Solution: 3.80

The measurements presented in this section are drawn from patent US20020026051A1.
